Collected apparent KD of MS2 coat protein values appear next to each entry.
# Test system: MS2 coat protein
# PROTOCOL TEXT: apparent KD of MS2 coat protein; designed switch direction (-1 OFF switch, 1 ON switch): 1; higher = weaker reporter binding
# DETAILS: input ligand: microRNA oligo, concentration not stated

SEQUENCE DATA	TARGET OR SYSTEM	UNITS	apparent KD of MS2 coat protein
UUUAUAGGCGCAGGAUAUGGUGAGGAUCACCCACUAGAAGGGUGCACAUGAGAAUCGGACAUGAGGAUCACCCAUGUCCGGCGC (Eterna round: R96, puzzle: Same State NG 1)	MS2 coat protein	nM	201
CGACCAAUUGUUUAAUAAACAUGAGGAUCACCCAUGUUUCGUGAGGAUAUCUAGGGUGAAGCACGGGAGAAGGCACUACGGUCA [Eternabot solution 21] (Eterna round: R96, puzzle: Same State NG 3)	MS2 coat protein	nM	120
GCUCGAUGUGUUGUCUACAUGAGGAUCACCCAUGUAGGUGCGGAGGAUAUCUACGUGCUUUAUGUAGAGAAGGUCGUAUCGAGC [SameState NG3 #86] (Eterna round: R96, puzzle: Same State NG 3)	MS2 coat protein	nM	54.3
GAGUAGUUGAAAGGAUAUGGAUUAUUGUAGGAUCCAGAAGGUUUUAACAUGAGGAUCACCCAUGUAGGACUAUAUAUGUGAAUA [Parity 96 - Jieux - Same State NG 1] (Eterna round: R96, puzzle: Same State NG 1)	MS2 coat protein	nM	10.2
CUCAACAACACAGGAUAUCCAGGGAAAAGACCUGGAGAAGGGUGACCAACAUGAGGAUCACCCAUGUGACAGCCAGGCUGUCUG [Esisiszaon] (Eterna round: R96, puzzle: Same State NG 1)	MS2 coat protein	nM	84.4
